src = patent US20260167959A1

System: Renilla luciferase RNA
METHOD DESCRIPTION: Barcoded aptazyme variant library screen: un-cleaved Renilla luciferase RNA by barcode read counts, HEK293-T cells
Type: cell-based
ASSAY CONTEXT: un-cleaved Renilla luciferase RNA by barcode read counts; with 1 mM theophylline (ON) over without theophylline (OFF); HEK293-T cells; triplicate
REPORTED PROPERTY: Fold change in RNA expression between the ON state and the OFF state
Give bare numbers.

The following molecules have reported results that may help.
* RA417 (nucleic acid, expressed or natural sequence) DNA: GCGCGTCCTGGATTCGCGGAAACGCGTACATCCAGCTGACGAGTCCCAAATCGGAATACCAGCATCGTCTTGATGCCCTTGGAAGTCCGAGGACGAAACGCGC | 0.7
* RA343 (nucleic acid, expressed or natural sequence) DNA: GCGCGTCCGGAATACCAGCATCGTCTTGATGCCCTTGGAAGTCCGCTGGATTCGCGGAAACGCGTACATCCAGCTGACGAGTCCCAAATAGGACGAAACGCGC | 0.9
* RA335 (nucleic acid, expressed or natural sequence) DNA: GCGCGTCCTGGATTCGCGGAAACGCGTAGGAATACCAGCATCGTCTTGATGCCCTTGGAAGTCCCATCCAGCTGACGAGTCCCAAATAGGACGAAACGCGC | 0.9

Let us move to another entry and its Fold change in RNA expression between the ON state and the OFF state.
For reference, reported Fold change in RNA expression between the ON state and the OFF state for RA470 (nucleic acid, expressed or natural sequence) DNA: GCGCGTCCTGGATTCGCGGAAACCGAGAATACCAGCATCGTCTTGATGCCCTTGGAAGTCTCGGCGTACATCCAGCTGACGAGTCCCAAATAGGACGAAACGCGC stands at 0.4
